Target: Tyrosine-protein kinase ABL1 (Homo sapiens)
Sequence (P00519 whole entry): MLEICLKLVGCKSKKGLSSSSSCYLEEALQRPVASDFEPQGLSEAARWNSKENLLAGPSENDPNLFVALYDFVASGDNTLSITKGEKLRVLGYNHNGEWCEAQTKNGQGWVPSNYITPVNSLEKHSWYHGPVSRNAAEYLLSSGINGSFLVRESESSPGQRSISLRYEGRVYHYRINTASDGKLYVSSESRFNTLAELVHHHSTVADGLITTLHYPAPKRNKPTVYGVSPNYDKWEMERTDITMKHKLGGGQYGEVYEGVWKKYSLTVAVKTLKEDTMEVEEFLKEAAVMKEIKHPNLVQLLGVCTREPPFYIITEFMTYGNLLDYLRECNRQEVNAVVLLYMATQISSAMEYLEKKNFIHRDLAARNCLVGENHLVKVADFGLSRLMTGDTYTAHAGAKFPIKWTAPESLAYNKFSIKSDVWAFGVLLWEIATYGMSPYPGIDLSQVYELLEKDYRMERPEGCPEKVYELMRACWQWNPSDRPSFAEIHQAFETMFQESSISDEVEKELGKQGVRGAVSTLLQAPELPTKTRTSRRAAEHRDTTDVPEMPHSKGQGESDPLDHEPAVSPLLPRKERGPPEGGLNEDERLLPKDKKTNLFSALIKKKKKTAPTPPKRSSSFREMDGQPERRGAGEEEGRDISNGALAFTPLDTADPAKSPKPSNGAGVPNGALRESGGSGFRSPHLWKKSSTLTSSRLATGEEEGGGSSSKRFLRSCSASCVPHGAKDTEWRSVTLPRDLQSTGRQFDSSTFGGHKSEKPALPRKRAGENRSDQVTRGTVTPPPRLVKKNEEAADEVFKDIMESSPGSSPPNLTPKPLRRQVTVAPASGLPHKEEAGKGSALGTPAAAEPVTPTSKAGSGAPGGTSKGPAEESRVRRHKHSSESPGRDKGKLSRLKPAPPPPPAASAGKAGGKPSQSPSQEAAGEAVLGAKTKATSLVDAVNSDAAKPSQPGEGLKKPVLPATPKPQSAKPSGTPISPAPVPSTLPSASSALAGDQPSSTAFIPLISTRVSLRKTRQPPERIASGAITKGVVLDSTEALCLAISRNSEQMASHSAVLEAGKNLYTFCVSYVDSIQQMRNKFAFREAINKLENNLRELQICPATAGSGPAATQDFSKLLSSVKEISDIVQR
Test: Inhibition of recombinant Abl
pIC50: −log10 of the molar value.
Reported Endpoint: pIC50

{"Chemical Structure": "O=C(c1cc2cc(O)ccc2[nH]1)c1cc2cc(O)ccc2[nH]1", "Reported Endpoint": "pIC50", "Result": 5.89}

---

Biological target: Platelet-derived growth factor receptor (Mus musculus, UniProt P05622+P26618)
Assay: Inhibition of endogenous PDGFR in Swiss3T3 fibroblasts
# strict inequality: IC50 < 700 nM yields satisfied, everything else yields not satisfied

{"Chemical Structure": "O=C(c1cc2cc(O)ccc2[nH]1)c1cc2cc(F)ccc2[nH]1", "Study Target": "Platelet-derived growth factor receptor (Mus musculus, UniProt P05622+P26618)", "Assigned Class": "not satisfied"}
{"Chemical Structure": "Cc1cc2ncc(-c3ccccc3)nc2cc1C", "Study Target": "Platelet-derived growth factor receptor (Mus musculus, UniProt P05622+P26618)", "Assigned Class": "not satisfied"}
{"Chemical Structure": "COc1ccc2[nH]c(C(=O)c3cc4cc(Br)ccc4[nH]3)cc2c1", "Study Target": "Platelet-derived growth factor receptor (Mus musculus, UniProt P05622+P26618)", "Assigned Class": "not satisfied"}
{"Chemical Structure": "COc1ccc2[nH]c(Cc3cc4ccccc4[nH]3)cc2c1", "Study Target": "Platelet-derived growth factor receptor (Mus musculus, UniProt P05622+P26618)", "Assigned Class": "not satisfied"}
{"Chemical Structure": "COc1ccc2[nH]c(C(=O)c3cc4c(C)cccc4[nH]3)cc2c1", "Study Target": "Platelet-derived growth factor receptor (Mus musculus, UniProt P05622+P26618)", "Assigned Class": "not satisfied"}
{"Chemical Structure": "COc1ccc2[nH]c(C(=O)c3cc4c(F)cccc4[nH]3)cc2c1", "Study Target": "Platelet-derived growth factor receptor (Mus musculus, UniProt P05622+P26618)", "Assigned Class": "not satisfied"}
{"Chemical Structure": "COc1cccc2cc(C(=O)c3cc4cc(O)ccc4[nH]3)[nH]c12", "Study Target": "Platelet-derived growth factor receptor (Mus musculus, UniProt P05622+P26618)", "Assigned Class": "not satisfied"}
{"Chemical Structure": "O=C(c1cc2cc(O)ccc2[nH]1)c1cc2c(F)cccc2[nH]1", "Study Target": "Platelet-derived growth factor receptor (Mus musculus, UniProt P05622+P26618)", "Assigned Class": "satisfied"}
{"Chemical Structure": "COc1ccc2cc(C(=O)c3cc4cc(OCc5ccccc5)ccc4[nH]3)[nH]c2c1", "Study Target": "Platelet-derived growth factor receptor (Mus musculus, UniProt P05622+P26618)", "Assigned Class": "not satisfied"}
{"Chemical Structure": "COc1ccc2[nH]c(C(=O)c3cc4ccc(C)cc4[nH]3)cc2c1", "Study Target": "Platelet-derived growth factor receptor (Mus musculus, UniProt P05622+P26618)", "Assigned Class": "satisfied"}
{"Chemical Structure": "Cc1ccc2[nH]c(C(=O)c3cc4cc(O)ccc4[nH]3)cc2c1", "Study Target": "Platelet-derived growth factor receptor (Mus musculus, UniProt P05622+P26618)", "Assigned Class": "not satisfied"}
{"Chemical Structure": "COc1ccc2[nH]c(C(=O)c3cc4cccc(Cl)c4[nH]3)cc2c1", "Study Target": "Platelet-derived growth factor receptor (Mus musculus, UniProt P05622+P26618)", "Assigned Class": "not satisfied"}
{"Chemical Structure": "COc1ccc2[nH]c(C(=O)c3cc4ccc(Cl)cc4[nH]3)cc2c1", "Study Target": "Platelet-derived growth factor receptor (Mus musculus, UniProt P05622+P26618)", "Assigned Class": "satisfied"}
{"Chemical Structure": "COc1cccc2[nH]c(C(=O)c3cc4cc(O)ccc4[nH]3)cc12", "Study Target": "Platelet-derived growth factor receptor (Mus musculus, UniProt P05622+P26618)", "Assigned Class": "not satisfied"}
{"Chemical Structure": "COc1ccc2[nH]c(C(=O)c3cc4cc(C)ccc4[nH]3)cc2c1", "Study Target": "Platelet-derived growth factor receptor (Mus musculus, UniProt P05622+P26618)", "Assigned Class": "not satisfied"}
{"Chemical Structure": "O=C(c1cc2cc(O)ccc2[nH]1)c1cc2cccc(F)c2[nH]1", "Study Target": "Platelet-derived growth factor receptor (Mus musculus, UniProt P05622+P26618)", "Assigned Class": "not satisfied"}
{"Chemical Structure": "O=C(c1cc2ccccc2[nH]1)c1cc2ccccc2[nH]1", "Study Target": "Platelet-derived growth factor receptor (Mus musculus, UniProt P05622+P26618)", "Assigned Class": "not satisfied"}
{"Chemical Structure": "COc1ccc2cc(C(=O)c3cc4cc(O)ccc4[nH]3)[nH]c2c1", "Study Target": "Platelet-derived growth factor receptor (Mus musculus, UniProt P05622+P26618)", "Assigned Class": "satisfied"}
{"Chemical Structure": "COc1ccc2cc(C(=O)c3cc4cc(OCCN(C)C)ccc4[nH]3)[nH]c2c1", "Study Target": "Platelet-derived growth factor receptor (Mus musculus, UniProt P05622+P26618)", "Assigned Class": "not satisfied"}
